Reported Relative Inhibition of IL-13 induced TARC IC50 is given for each of the following binders.
testTarget: T1, hIL-4Rα on cells (human, UniProt P24394 26-825)
T1 sequence: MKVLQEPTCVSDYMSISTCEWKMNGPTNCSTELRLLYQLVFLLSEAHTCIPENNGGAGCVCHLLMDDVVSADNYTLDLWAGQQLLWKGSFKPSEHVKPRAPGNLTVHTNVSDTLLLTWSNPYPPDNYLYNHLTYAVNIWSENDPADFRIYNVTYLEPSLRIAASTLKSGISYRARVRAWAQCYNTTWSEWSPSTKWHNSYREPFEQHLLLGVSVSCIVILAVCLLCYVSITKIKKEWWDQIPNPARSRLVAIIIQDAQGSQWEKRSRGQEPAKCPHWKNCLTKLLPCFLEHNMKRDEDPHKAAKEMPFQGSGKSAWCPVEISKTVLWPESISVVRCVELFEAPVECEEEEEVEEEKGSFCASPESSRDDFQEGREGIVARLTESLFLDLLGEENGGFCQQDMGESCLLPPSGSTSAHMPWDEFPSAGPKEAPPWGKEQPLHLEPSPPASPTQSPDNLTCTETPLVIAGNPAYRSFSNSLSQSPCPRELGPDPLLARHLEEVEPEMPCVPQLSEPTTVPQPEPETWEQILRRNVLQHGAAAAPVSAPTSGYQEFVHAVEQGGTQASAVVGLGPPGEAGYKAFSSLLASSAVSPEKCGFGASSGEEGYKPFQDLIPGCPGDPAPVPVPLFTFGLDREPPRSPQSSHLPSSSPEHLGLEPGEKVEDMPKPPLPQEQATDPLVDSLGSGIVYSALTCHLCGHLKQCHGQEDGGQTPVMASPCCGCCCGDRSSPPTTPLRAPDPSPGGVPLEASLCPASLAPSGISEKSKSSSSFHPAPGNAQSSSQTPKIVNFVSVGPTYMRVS
assayName: cell-based or functional assay
propertyMeasured: Relative Inhibition of IL-13 induced TARC IC50

INSERT INTO measurements (binder, reported) VALUES
  ('Construct 11 (mAb420) (antibody, IgG4, V domains shown, VH/VL only) VH: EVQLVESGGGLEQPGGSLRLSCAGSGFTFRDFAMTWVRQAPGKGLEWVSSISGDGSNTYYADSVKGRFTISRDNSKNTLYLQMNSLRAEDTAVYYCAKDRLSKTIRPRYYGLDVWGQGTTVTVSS VL: DIVMTQSPLSLPVTPGEPASISCRSSQSVLYSIGYNYVDWYLQKSGQSPQLLIYLGNKRASGVPDRFSGSGSGTDFTLKISRVEAEDVGFYYCMQSLQTPYTFGQGTKLEIK', '0.877 relative to dupilumab'),
  ('Construct 25 (mAb433) (antibody, IgG4, V domains shown, VH/VL only) VH: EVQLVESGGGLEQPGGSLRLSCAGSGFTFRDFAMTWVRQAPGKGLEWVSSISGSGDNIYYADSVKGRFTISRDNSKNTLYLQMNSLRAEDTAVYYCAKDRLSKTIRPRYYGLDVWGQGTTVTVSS VL: DIVMTQSPLSLPVTPGEPASISCTASQSLLYSIGYNYLDWYLQKSGQSPQLLIYEGNKRASGVPDRFSGSGSGTDFTLKISRVEAEDVGFYYCMQSLTSPYTFGQGTKLEIK', '1.78 relative to dupilumab'),
  ('Construct 38 (mAb471) (antibody, IgG4, V domains shown, VH/VL only) VH: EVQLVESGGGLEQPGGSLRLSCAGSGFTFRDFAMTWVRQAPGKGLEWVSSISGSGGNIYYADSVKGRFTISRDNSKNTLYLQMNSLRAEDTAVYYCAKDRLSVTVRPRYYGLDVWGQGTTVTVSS VL: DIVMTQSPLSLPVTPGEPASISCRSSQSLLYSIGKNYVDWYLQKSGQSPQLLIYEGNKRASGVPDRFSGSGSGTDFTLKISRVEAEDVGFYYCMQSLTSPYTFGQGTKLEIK', '1.63 relative to dupilumab'),
  ('Construct 31 (mAb443) (antibody, IgG4, V domains shown, VH/VL only) VH: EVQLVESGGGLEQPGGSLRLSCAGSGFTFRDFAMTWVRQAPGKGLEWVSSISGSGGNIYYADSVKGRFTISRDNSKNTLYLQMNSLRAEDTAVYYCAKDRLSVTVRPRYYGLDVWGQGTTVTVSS VL: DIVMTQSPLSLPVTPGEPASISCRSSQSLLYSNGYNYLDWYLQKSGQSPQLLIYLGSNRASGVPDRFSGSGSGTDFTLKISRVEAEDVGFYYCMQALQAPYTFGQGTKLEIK', '0.703 relative to dupilumab'),
  ('Construct 22 (mAb430) (antibody, IgG4, V domains shown, VH/VL only) VH: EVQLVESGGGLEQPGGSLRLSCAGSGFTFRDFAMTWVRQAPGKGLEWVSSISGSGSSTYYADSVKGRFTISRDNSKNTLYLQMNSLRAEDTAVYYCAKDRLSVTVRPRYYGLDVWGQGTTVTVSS VL: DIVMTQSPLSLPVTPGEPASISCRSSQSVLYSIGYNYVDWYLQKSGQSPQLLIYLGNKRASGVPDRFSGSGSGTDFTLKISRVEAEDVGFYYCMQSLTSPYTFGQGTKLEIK', '0.535 relative to dupilumab');
